FYI, the data here is from patent US4443436A.

Measured MIC, listed per entry for reference.
System: Haemophilus influenzae Holt
Test: MIC, standard agar-dilution assay, Haemophilus influenzae Holt
Assay type: cell-based
Conditions: Haemophilus influenzae

// below: answered molecules
CCC1OC(=O)CC(O)C(C)C(OC2OC(C)C(OC3CC(C)(O)C(O)C(C)O3)C(N(C)C)C2O)C(CCNC(=O)Cc2ccccc2)CC(C)C(=O)C=CC(C)=CC1COC1OC(C)C(O)C(OC)C1OC (centres unmarked) [Compound 3]; 128 µg/mL
CCC1OC(=O)CC(O)C(C)C(OC2OC(C)C(OC3CC(C)(O)C(O)C(C)O3)C(N(C)C)C2O)C(CCSc2nnnn2C)CC(C)C(=O)C=CC(C)=CC1COC1OC(C)C(O)C(OC)C1OC (centres unmarked) [Compound 5]; > 128 µg/mL

Inquiry: Which MIC is reported with Haemophilus influenzae Holt for this entry: CCC1OC(=O)CC(O)C(C)C(OC2OC(C)C(O)C(N(C)C)C2O)C(CCCl)CC(C)C(=O)C=CC(C)=CC1COC1OC(C)C(O)C(OC)C1OC (centres unmarked) [Compound 21, 20-DH-DO-20-Chlorodesmycosin] ?
Reply text: 16 µg/mL

Inquiry: Please do the same for CCOC(=O)c1ccc(OCCC2CC(C)C(=O)C=CC(C)=CC(COC3OC(C)C(O)C(OC)C3OC)C(CC)OC(=O)CC(O)C(C)C2OC2OC(C)C(O)C(N(C)C)C2O)cc1 (centres unmarked) [Compound 38] as well.
Reply text: 16 µg/mL

Inquiry: Please do the same for CCC1OC(=O)CC(O)C(C)C(OC2OC(C)C(O)C(N(C)C)C2O)C(CCOc2ccc(C(=O)c3ccccc3)cc2)CC(C)C(=O)C=CC(C)=CC1COC1OC(C)C(O)C(OC)C1OC (centres unmarked) [Compound 37, 20-DH-20-O-(p-Benzoylphenyl)desmycosin] as well.
Reply text: 16 µg/mL

----------
System: Staphylococcus aureus S13E
Assay: MIC, standard agar-dilution assay, Staphylococcus aureus S13E
Type: cell-based
Details: Staphylococcus aureus, S13E
MEASURED ATTRIBUTE: MIC (µg/mL)
Give the value, in units of µg/mL, as a plain number.

// below: answered compounds
CCC1OC(=O)CC(O)C(C)C(OC2OC(C)C(OC3CC(C)(O)C(O)C(C)O3)C(N(C)C)C2O)C(CCOc2ccc(OC)cc2)CC(C)C(=O)C=CC(C)=CC1COC1OC(C)C(O)C(OC)C1OC (stereo not drawn); 1
CCC1OC(=O)CC(O)C(C)C(OC2OC(C)C(O)C(N(C)C)C2O)C(CC2Nc3ccccc3S2)CC(C)C(=O)C=CC(C)=CC1COC1OC(C)C(O)C(OC)C1OC (stereo not drawn); 0.25
CCC1OC(=O)CC(O)C(C)C(OC2OC(C)C(O)C(N(C)C)C2O)C(CCOC)CC(C)C(=O)C=CC(C)=CC1COC1OC(C)C(O)C(OC)C1OC (stereo not drawn); 0.5
CCC1OC(=O)CC(O)C(C)C(OC2OC(C)C(OC3CC(C)(O)C(O)C(C)O3)C(N(C)C)C2O)C(CCSc2nnnn2C)CC(C)C(=O)C=CC(C)=CC1COC1OC(C)C(O)C(OC)C1OC (stereo not drawn); 2
CCC1OC(=O)CC(O)C(C)C(OC2OC(C)C(O)C(N(C)C)C2O)C(CCSc2nnnn2C)CC(C)C(=O)C=CC(C)=CC1COC1OC(C)C(O)C(OC)C1OC (stereo not drawn); 0.5
CCC1OC(=O)CC(O)C(C)C(OC2OC(C)C(OC3CC(C)(O)C(O)C(C)O3)C(N(C)C)C2O)C(CCF)CC(C)C(=O)C=CC(C)=CC1COC1OC(C)C(O)C(OC)C1OC (stereo not drawn); 1

Inquiry: Would you mind telling me what MIC value was observed for CCC1OC(=O)CC(O)C(C)C(OC2OC(C)C(OC3CC(C)(O)C(O)C(C)O3)C(N(C)C)C2O)C(CCNC(=O)Cc2ccccc2)CC(C)C(=O)C=CC(C)=CC1COC1OC(C)C(O)C(OC)C1OC (stereo not drawn) ?
Reply text: 0.5

Inquiry: Please do the same for CCC1OC(=O)CC(O)C(C)C(OC2OC(C)C(OC3CC(C)(O)C(O)C(C)O3)C(N(C)C)C2O)C(CCI)CC(C)C(=O)C=CC(C)=CC1COC1OC(C)C(O)C(O)C1OC (stereo not drawn) as well.
Reply text: 4

Inquiry: Please do the same for CCC1OC(=O)CC(O)C(C)C(OC2OC(C)C(OC3CC(C)(O)C(O)C(C)O3)C(N(C)C)C2O)C(CCOc2cc(Cl)cc(Cl)c2)CC(C)C(=O)C=CC(C)=CC1COC1OC(C)C(O)C(OC)C1OC (stereo not drawn) as well.
Reply text: 1

----------
Measured MIC, listed per entry for reference.
Test system: Streptococcus Group 9960
Experiment: MIC, standard agar-dilution assay, Streptococcus Group 9960
Assay type: cell-based
Conditions: Streptococcus Group 9960; agar dilution
Give the value, in units of µg/mL, as a plain number.

CCC1OC(=O)CC(O)C(C)C(OC2OC(C)CC(N(C)C)C2O)C(CCOc2ccccc2)CC(C)C(=O)C=CC(C)=CC1COC1OC(C)C(O)C(OC)C1OC (stereo not shown) [Compound 70, 20-DH-20-O-Phenyl-4'-deoxydesmycosin]; 4
CCC1OC(=O)CC(O)C(C)C(OC2OC(C)C(O)C(N(C)C)C2OC(C)=O)C(CCOc2ccccc2)CC(C)C(=O)C=CC(C)=CC1COC1OC(C)C(O)C(OC)C1OC (stereo not shown) [Compound 67, 20-DH-20-O-Phenyl-2'-O-acetyldesmycosin]; 8

Inquiry: Would you mind telling me what MIC value was observed for CCC1OC(=O)CC(O)C(C)C(OC2OC(C)C(OC3CC(C)(O)C(O)C(C)O3)C(N(C)C)C2O)C(CCOc2ncnc3ccccc23)CC(C)C(=O)C=CC(C)=CC1COC1OC(C)C(O)C(OC)C1OC (stereo not shown) [Compound 19a] ?
Reply text: 64

----------
System: Mycoplasma hyorhinis
Experiment: MIC, broth-dilution microtiter test, Mycoplasma hyorhinis
Assay type: cell-based
Details: Mycoplasma hyorhinis; broth-dilution microtiter
MEASURED ATTRIBUTE: MIC

// below: answered molecules
CCC(=O)OC1C(OC2C(CCN3C(=O)c4ccccc4C3=O)CC(C)C(=O)C=CC(C)=CC(COC3OC(C)C(O)C(OC)C3OC)C(CC)OC(=O)CC(O)C2C)OC(C)C(OC2CC(C)(O)C(O)C(C)O2)C1N(C)C (stereo not drawn) [Compound 62]; 50 µg/mL
CC[C@H]1OC(=O)C[C@@H](O)[C@H](C)[C@@H](O[C@@H]2O[C@H](C)[C@H](O)[C@H](N(C)C)[C@H]2O)[C@@H](CCOc2ccccc2)C[C@@H](C)C(=O)/C=C/C(C)=C/[C@@H]1COC1O[C@H](C)[C@@H](O)[C@@H](OC)[C@H]1OC (stereo partly drawn) [Compound 33, 20-DH-20-O-Phenyldesmycosin]; 25 µg/mL
CCC1OC(=O)CC(O)C(C)C(OC2OC(C)C(O)C(N(C)C)C2OC(C)=O)C(CCOc2ccccc2)CC(C)C(=O)C=CC(C)=CC1COC1OC(C)C(O)C(OC)C1OC (stereo not drawn) [Compound 67, 20-DH-20-O-Phenyl-2'-O-acetyldesmycosin]; 50 µg/mL

Inquiry: Would you mind telling me what MIC value was observed for CCC1OC(=O)CC(O)C(C)C(OC2OC(C)C(O)C(N(C)C)C2O)C(CCOc2nnc(-c3ccccc3)c(-c3ccccc3)n2)CC(C)C(=O)C=CC(C)=CC1COC1OC(C)C(O)C(OC)C1OC (stereo not drawn) [Compound 50] ?
Reply text: 12.5 µg/mL

Inquiry: Please do the same for CCC(=O)OC1C(OC2C(CCCl)CC(C)C(=O)C=CC(C)=CC(COC3OC(C)C(O)C(OC)C3OC)C(CC)OC(=O)CC(O)C2C)OC(C)C(O)C1N(C)C (stereo not drawn) [Compound 69] as well.
Reply text: 50 µg/mL

Inquiry: Please do the same for CCC1OC(=O)CC(O)C(C)C(OC2OC(C)C(O)C(N(C)C)C2O)C(CCN=[N+]=[N-])CC(C)C(=O)C=CC(C)=CC1COC1OC(C)C(O)C(OC)C1OC (stereo not drawn) [Compound 44, 20-DH-DO-20-Azidodesmycosin] as well.
Reply text: 50 µg/mL

Inquiry: Please do the same for CCC1OC(=O)CC(O)C(C)C(OC2OC(C)C(O)C(N(C)C)C2O)C(CCOc2ccc(-c3ccccc3)cc2)CC(C)C(=O)C=CC(C)=CC1COC1OC(C)C(O)C(OC)C1OC (stereo not drawn) [Compound 41, 20-DH-20-O-(p-Phenylphenyl)desmycosin] as well.
Reply text: 3.12 µg/mL

Inquiry: Please do the same for CCC1OC(=O)CC(O)C(C)C(OC2OC(C)C(OC3CC(C)(O)C(O)C(C)O3)C(N(C)C)C2O)C(CCOc2ccccc2)CC(C)C(=O)C=CC(C)=CC1COC1OC(C)C(O)C(O)C1OC (stereo not drawn) [Compound 53, 20-DH-20-O-Phenylmacrocin] as well.
Reply text: 50 µg/mL

----------
Measured ED50, listed per entry for reference.
Test system: Streptococcus pyogenes C203
Assay: In vivo protection of mice experimentally infected with S. pyogenes C203
Conditions: Streptococcus pyogenes, C203, sc; mice; subcutaneous; doses given 1 and 4 hours post-infection; read-out: ED50, Subcutaneous

// below: answered compounds
CCC1OC(=O)CC(O)C(C)C(OC2OC(C)C(O)C(N(C)C)C2O)C(CCSc2ccccc2)CC(C)C(=O)C=CC(C)=CC1COC1OC(C)C(O)C(OC)C1OC (stereo not drawn) [Compound 23, 20-DH-DO-20-(phenylthio)desmycosin]; 10 mg/kg
CCC1OC(=O)CC(O)C(C)C(OC2OC(C)C(O)C(N(C)C)C2O)C(CCOC(C(F)(F)F)C(F)(F)F)CC(C)C(=O)C=CC(C)=CC1COC1OC(C)C(O)C(OC)C1OC (stereo not drawn) [Compound 32]; > 10 mg/kg

Okay, next one:
Inquiry: Would you mind telling me what ED50 value was observed for CCC1OC(=O)CC(O)C(C)C(OC2OC(C)C(OC3CC(C)(O)C(O)C(C)O3)C(N(C)C)C2O)C(CCN2C(=O)c3ccccc3C2=O)CC(C)C(=O)C=CC(C)=CC1COC1OC(C)C(O)C(OC)C1OC (stereo not drawn) [Compound 1, 20-DH-DO-20-N-Phthalimidotylosin] ?
Reply text: > 6.3 mg/kg
